testedSystem: Proteasome subunit alpha type-6 (Homo sapiens)
Sequence (P60900 whole entry): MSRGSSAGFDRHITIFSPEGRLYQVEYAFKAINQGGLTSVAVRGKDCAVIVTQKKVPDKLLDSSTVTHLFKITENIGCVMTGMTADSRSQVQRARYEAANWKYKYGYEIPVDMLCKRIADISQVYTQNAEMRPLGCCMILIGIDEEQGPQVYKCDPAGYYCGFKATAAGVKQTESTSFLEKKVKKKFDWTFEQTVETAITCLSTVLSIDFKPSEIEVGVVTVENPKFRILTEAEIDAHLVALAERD
testDetails: Proteasome Activity Assay
measurementSetup: pH 7.5; 37 °C
Method: Activity assays were carried out in a 200 uL reaction volume. […] Fluorogenic substrates were then added and the enzymatic activity measured at 37 °C on a SpectraMax M5e spectrometer by measuring the change in fluorescence unit per minute for 1 h at 380−460 nm. The fluorescence units for the vehicle control were set at a 100%, and the ratio of drug-treated sample set to that of vehicle control was used to calculate the fold change in enzymatic activity.
Where a name gives a salt, the structure may show the parent alone.
pEC50 values by entry
Note: pEC50 values are expressed as the negative base-10 logarithm of concentration in M.

Here's what some known entries look like.
INSERT INTO assay_data (compound, reportedresult) VALUES
  ('Clc1ccc2c(c1)N(CCCCN1CCOCC1)c1ccccc1S2 [CPZ analog, 5]', 5.05),
  ('CN(C)CCCN1c2ccccc2CCc2ccc(Cl)cc21 [CLOMIPRAMINE HYDROCHLORIDE]', 4.91),
  ('CN1CCCC(CC2c3ccccc3Sc3ccccc32)C1 (configuration not stated) [METHIXENE]', 4.92),
  ('CSc1ccc2c(c1)N(CC[C@@H]1CCCCN1C)c1ccccc1S2', 4.92);

The observed pEC50 for O=S(=O)(O)CCCCN1c2ccccc2Sc2ccc(Cl)cc21 [CPZ analog, 2] when tested with Proteasome subunit alpha type-6 (Homo sapiens) stands at 5.20

The observed pEC50 for COC(=O)c1ccc(CN2c3ccccc3Sc3ccc(Cl)cc32)cc1 [CPZ analog, 8] when tested with Proteasome subunit alpha type-6 (Homo sapiens) stands at 4.81

The observed pEC50 for O=C(O)c1ccc(CN2c3ccccc3Sc3ccc(Cl)cc32)cc1 [CPZ analog, 7] when tested with Proteasome subunit alpha type-6 (Homo sapiens) stands at 5.19

The observed pEC50 for CN(C)CCCN1c2ccccc2Sc2ccc(C(F)(F)F)cc21 [TRIFLUPROMAZINE] when tested with Proteasome subunit alpha type-6 (Homo sapiens) stands at 5.11

###

testedSystem: Dopamine D2 receptor (Homo sapiens)
testDetails: Human embryonic kidney (HEK-293) cells were plated in 100 mm plates and transfected with pcDNA3.1-D2R using Lipofectamine 2000 (Invitrogen; Waltham, MA) according to the manufacturer's instructions. Radioligand binding assays were performed 24 h after transfection essentially as described.
Ki values by entry

Here's what some known entries look like.
INSERT INTO results (compoundstructure, measuredparameter, reportedresult) VALUES
  ('O=C(O)c1ccc(CN2c3ccccc3Sc3ccc(Cl)cc32)cc1', 'Ki', '> 250 µM'),
  ('Clc1ccc2c(c1)N(CCCCN1CCOCC1)c1ccccc1S2', 'Ki', '> 2.97 µM'),
  ('O=S(=O)(O)CCCCN1c2ccccc2Sc2ccc(Cl)cc21', 'Ki', '> 250 µM');

For reference, reported Ki for O=C(O)C#CCN1c2ccccc2Sc2ccc(Cl)cc21 stands at > 250 µM

For reference, reported Ki for CC(C)CCCN1c2ccccc2Sc2ccc(Cl)cc21 stands at > 250 µM

For reference, reported Ki for COC(=O)c1ccc(CN2c3ccccc3Sc3ccc(Cl)cc32)cc1 stands at > 250 µM

###

pEC50 values by entry
testedSystem: Proteasome subunit alpha type-6 (Homo sapiens)
testDetails: Proteasome Activity Assay
measurementSetup: pH 7.5; 37 °C
pEC50: −log10 of the molar value.

Here's what some known entries look like.
INSERT INTO assay_data (molecule, measuredparameter, reportedresult) VALUES
  ('O=S(=O)(O)CCCCCN1c2ccccc2Sc2ccc(Cl)cc21 [CPZ analog, 4]', 'pEC50', '< 4.60'),
  ('CC(C)CCCN1c2ccccc2Sc2ccc(Cl)cc21 [CPZ analog, 1]', 'pEC50', '< 4.60'),
  ('O=S(=O)(O)CCCN1c2ccccc2Sc2ccc(Cl)cc21 [CPZ analog, 3]', 'pEC50', '< 4.60');

With those in mind, consider the next molecule.
For reference, reported pEC50 for O=C(O)C#CCN1c2ccccc2Sc2ccc(Cl)cc21 [CPZ analog, 6] stands at < 4.60
